molecular target: T1, FZD1 CRD (Homo sapiens, UniProt Q9UP38); test: Flow cytometry of anti-FZD5 Fab binding to CHO cells overexpressing Frizzled CRD
T1 construct: D112-P238; GPI anchor signal (C); expressed in transfected cells; host or cells: CHO cells, lentiviral pLenti-puro
METRIC: Median fluorescence, Frizzled CRD overexpressed on CHO cells: FZD1
Could you keep your reply to the number by itself?

Examples with answers:
| MOLECULE | NUMERIC_READOUT |
| --- | --- |
| Fab-2910: anti-FZD5 Fab with antibody variable region Fv-2910; CDR SEQ ID NOs: 35, 36, 49, 88, 125, 162 (antibody, V domains shown) VH: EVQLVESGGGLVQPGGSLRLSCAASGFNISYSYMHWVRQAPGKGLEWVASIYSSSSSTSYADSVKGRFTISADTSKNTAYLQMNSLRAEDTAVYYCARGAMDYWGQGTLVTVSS VL: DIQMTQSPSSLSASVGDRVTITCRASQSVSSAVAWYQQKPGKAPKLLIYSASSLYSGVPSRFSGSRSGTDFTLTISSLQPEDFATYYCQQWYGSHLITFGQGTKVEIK | 6.67 |
| Fab-2925: anti-FZD5 Fab with antibody variable region Fv-2925; CDR SEQ ID NOs: 35, 36, 64, 102, 140, 172 (antibody, V domains shown) VH: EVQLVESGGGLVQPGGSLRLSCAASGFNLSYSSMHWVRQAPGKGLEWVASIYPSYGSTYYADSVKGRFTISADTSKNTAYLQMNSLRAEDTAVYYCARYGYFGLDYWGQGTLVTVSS VL: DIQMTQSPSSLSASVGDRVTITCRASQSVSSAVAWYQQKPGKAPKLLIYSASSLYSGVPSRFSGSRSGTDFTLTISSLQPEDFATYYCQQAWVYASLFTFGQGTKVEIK | 19.46 |

I'd like to know its Median fluorescence, Frizzled CRD overexpressed on CHO cells: FZD1. The molecule in question is Fab-2918: anti-FZD5 Fab with antibody variable region Fv-2918; CDR SEQ ID NOs: 35, 36, 57, 96, 133, 169 (antibody, V domains shown) VH: EVQLVESGGGLVQPGGSLRLSCAASGFNLSYSSIHWVRQAPGKGLEWVASIYSSYSSTSYADSVKGRFTISADTSKNTAYLQMNSLRAEDTAVYYCARFGYWAIDYWGQGTLVTVSS VL: DIQMTQSPSSLSASVGDRVTITCRASQSVSSAVAWYQQKPGKAPKLLIYSASSLYSGVPSRFSGSRSGTDFTLTISSLQPEDFATYYCQQAFGASLFTFGQGTKVEIK
11.97
